# methodSummary: total protein half-life in vivo (active degradation + dilution); higher = more stable protein
# testContext: wild type E. coli NCM3722; growth: N-lim chemostat; doubling time 6 h
In this section we review reported total protein half-life in vivo values for a set of sequences.
readout: total protein half-life in vivo

[
  {
    "seqText": "MIEIESRELADIPVLHAYPVGQKDTPLPCVIFYHGFTSSSLVYSYFAVALAQAGLRVIMPDAPDHGSRFSGDAARRLNQFWQILLQSMQEFTTLRAAIAEENWLLDDRLAVGGASMGAMTALGITARHPTVRCTASMMGSGYFTSLARSLFPPLIPETAAQQNEFNNIVAPLAEWEATNHLEQLSDRPLLLWHGLDDDVVPADESLRLQQALSETGRDKLLTCSWQPGVRHRITPEALDAAVTFFRQHL",
    "readout": "total protein half-life in vivo",
    "reportedMeasurement": "4.11 h"
  },
  {
    "seqText": "MSLPHCPKCNSEYTYEDNGMYICPECAYEWNDAEPAQESDELIVKDANGNLLADGDSVTIIKDLKVKGSSSMLKIGTKVKNIRLVEGDHNIDCKIDGFGPMKLKSEFVKKN [P0AFJ1]",
    "readout": "total protein half-life in vivo",
    "reportedMeasurement": "4.88 h"
  },
  {
    "seqText": "MTVTRPRAERGAFPPGTEHYGRSLLGAPLIWFPAPAASRESGLILAGTHGDENSSVVTLSCALRTLTPSLRRHHVVLCVNPDGCQLGLRANANGVDLNRNFPAANWKEGETVYRWNSAAEERDVVLLTGDKPGSEPETQALCQLIHRIQPAWVVSFHDPLACIEDPRHSELGEWLAQAFELPLVTSVGYETPGSFGSWCADLNLHCITAEFPPISSDEASEKYLFAMANLLRWHPKDAIRPS [P0ACV6]",
    "readout": "total protein half-life in vivo",
    "reportedMeasurement": "3.66 h"
  },
  {
    "seqText": "MLKKFRGMFSNDLSIDLGTANTLIYVKGQGIVLNEPSVVAIRQDRAGSPKSVAAVGHDAKQMLGRTPGNIAAIRPMKDGVIADFFVTEKMLQHFIKQVHSNSFMRPSPRVLVCVPVGATQVERRAIRESAQGAGAREVFLIEEPMAAAIGAGLPVSEATGSMVVDIGGGTTEVAVISLNGVVYSSSVRIGGDRFDEAIINYVRRNYGSLIGEATAERIKHEIGSAYPGDEVREIEVRGRNLAEGVPRGFTLNSNEILEALQEPLTGIVSAVMVALEQCPPELASDISERGMVLTGGGALLRNLDRLLMEETGIPVVVAEDPLTCVARGGGKALEMIDMHGGDLFSEE [P0A9X4]",
    "readout": "total protein half-life in vivo",
    "reportedMeasurement": "6.13 h"
  },
  {
    "seqText": "MHKAILNSDLIATKAGDVTVYNYDGETREYISTSNEYLAVGVGIPACSCLDAPGTHKAGYAICRSADFNSWEYVPDHRGETVYSTKTGESKEIKAPGDYPENTTTIAPLSPYDKWDGEKWVTDTEAQHSAAVDAAEAQRQSLIDAAMASISLIQLKLQAGRKLTQAETTRLNAVLDYIDAVTATDTSTAPDVIWPELPEA",
    "readout": "total protein half-life in vivo",
    "reportedMeasurement": "3.06 h"
  },
  {
    "seqText": "MSAVLTAEQALKLVGEMFVYHMPFNRALGMELERYEKEFAQLAFKNQPMMVGNWAQSILHGGVIASALDVAAGLVCVGSTLTRHETISEDELRQRLSRMGTIDLRVDYLRPGRGERFTATSSLLRAGNKVAVARVELHNEEQLYIASATATYMVG [P0ADP2]",
    "readout": "total protein half-life in vivo",
    "reportedMeasurement": "2.54 h"
  },
  {
    "seqText": "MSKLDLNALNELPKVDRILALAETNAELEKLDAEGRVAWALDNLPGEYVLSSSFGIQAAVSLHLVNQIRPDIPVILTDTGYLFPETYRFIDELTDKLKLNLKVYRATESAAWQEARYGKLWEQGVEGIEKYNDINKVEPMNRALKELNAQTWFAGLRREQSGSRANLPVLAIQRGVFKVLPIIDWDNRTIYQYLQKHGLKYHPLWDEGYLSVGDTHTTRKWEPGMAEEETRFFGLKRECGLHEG",
    "readout": "total protein half-life in vivo",
    "reportedMeasurement": "1.47 h"
  },
  {
    "seqText": "MIEKIWSGESPLWRLLLPLSWLYGLVSGAIRLCYKLKLKRAWRAPVPVVVVGNLTAGGNGKTPVVVWLVEQLQQRGIRVGVVSRGYGGKAESYPLLLSADTTTAQAGDEPVLIYQRTDAPVAVSPVRSDAVKAILAQHPDVQIIVTDDGLQHYRLARDVEIVVIDGVRRFGNGWWLPAGPMRERAGRLKSVDAVIVNGGVPRSGEIPMHLLPGQAVNLRTGTRCDVAQLEHVVAMAGIGHPPRFFATLKMCGVQPEKCVPLADHQSLNHADVSALVSAGQTLVMTEKDAVKCRAFAEENWWYLPVDAQLSGDEPAKLLTQLTLLASGN",
    "readout": "total protein half-life in vivo",
    "reportedMeasurement": "5.52 h"
  },
  {
    "seqText": "MSTTWFVGADWLAEHIDDPEIQIIDARMASPGQEDRNVAQEYLNGHIPGAVFFDIEALSDHTSPLPHMLPRPETFAVAMRELGVNQDKHLIVYDEGNLFSAPRAWWMLRTFGVEKVSILGGGLAGWQRDDLLLEEGAVELPEGEFNAAFNPEAVVKVTDVLLASHENTAQIIDARPAARFNAEVDEPRPGLRRGHIPGALNVPWTELVREGELKTTDELDAIFFGRGVSYDKPIIVSCGSGVTAAVVLLALATLDVPNVKLYDGAWSEWGARADLPVEPVK",
    "readout": "total protein half-life in vivo",
    "reportedMeasurement": "4.51 h"
  },
  {
    "seqText": "MRLEFSIYRYNPDVDDAPRMQDYTLEADEGRDMMLLDALIQLKEKDPSLSFRRSCREGVCGSDGLNMNGKNGLACITPISALNQPGKKIVIRPLPGLPVIRDLVVDMGQFYAQYEKIKPYLLNNGQNPPAREHLQMPEQREKLDGLYECILCACCSTSCPSFWWNPDKFIGPAGLLAAYRFLIDSRDTETDSRLDGLSDAFSVFRCHSIMNCVSVCPKGLNPTRAIGHIKSMLLQRNA",
    "readout": "total protein half-life in vivo",
    "reportedMeasurement": "5.22 h"
  },
  {
    "seqText": "MEPLREIRNRLLNGWQLSKMHTFEVAARHQSFALAAEELSLSPSAVSHRINQLEEELGIQLFVRSHRKVELTHEGKRVYWALKSSLDTLNQEILDIKNQELSGTLTLYSRPSIAQCWLVPALGDFTRRYPSISLTVLTGNDNVNLQRAGIDLAIYFDDAPSAQLTHHFLMDEEILPVCSPEYAQRHALTNTVINLCHCTLLHDRQAWSNDSGTDEWHSWAQHYAVNLPTSSGIGFDRSDLAVIAAMNHIGVAMGRKRLVQKRLASGELVAPFGDMTVKCHQHYYITTLPGRQWPKIEAFIIWLREQVKTTS",
    "readout": "total protein half-life in vivo",
    "reportedMeasurement": "5.13 h"
  }
]
